From: patent US20220275067A1

target: T1, recombinant human 4R0N tau (human, UniProt P10636 2-758); test: SPR Biacore T200; antibody captured by anti-human Fc; tau as analyte; global 1:1 fit
T1 construct: also called recombinant 4R0N human tau; P10636-6
T1 sequence (P10636 other isoform, or with tags, fused parts or gaps limits assumed): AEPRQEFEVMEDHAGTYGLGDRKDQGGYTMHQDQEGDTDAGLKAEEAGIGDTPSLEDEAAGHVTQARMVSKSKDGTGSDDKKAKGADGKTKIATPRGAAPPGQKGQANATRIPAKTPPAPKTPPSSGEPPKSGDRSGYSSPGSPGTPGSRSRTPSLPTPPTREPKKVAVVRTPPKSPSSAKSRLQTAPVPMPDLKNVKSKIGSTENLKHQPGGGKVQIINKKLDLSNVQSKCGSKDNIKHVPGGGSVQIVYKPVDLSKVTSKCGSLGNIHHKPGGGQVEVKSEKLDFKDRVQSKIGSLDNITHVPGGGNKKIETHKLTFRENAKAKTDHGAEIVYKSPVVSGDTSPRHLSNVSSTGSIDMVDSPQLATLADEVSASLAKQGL
Catalogue of binders with associated kon
Enter your answer as a number in M⁻¹ s⁻¹; do not include the unit.

Known results for binders:
# Binder, kon / M⁻¹ s⁻¹
rows = [
    ("hu9F5VHv9/hu9F5VLv8_DIM16 (antibody, V domains shown) VH: EVQLVQSGAEVKKPGATVKISCKASGFNIKDDYMNWVQQRPGKGLEWIGWIDPENGDTEYASKFQGRATMTADTSTNTAYMELSSLRSEDTAVYYCTTSNGWGQGTLVTVSS VL: DIQMTQSPFSLPVTPGESASISCRSSKSLGHSNGITYLYWYGQKPGQSPQLLIYQGSNTASGVPNRFSSSGSGTDFTLKISRVEAEDVGVYYCAQNLELPLTFGQGTKLEIK", "2.27e+06"),
    ("hu9F5VHv9/hu9F5VLv8_DIM12 (antibody, V domains shown) VH: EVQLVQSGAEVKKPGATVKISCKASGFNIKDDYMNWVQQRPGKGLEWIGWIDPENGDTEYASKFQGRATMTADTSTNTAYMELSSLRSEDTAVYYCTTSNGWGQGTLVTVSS VL: DIQMTQSPFSLPVTPGESASISCRSSKSLGHSNGITYLYWYGQKPGQSPQLLIYQGSNRASGVPNRFSSSGSGTDFTLKISRVEAEDVGVYYCAQNGELPLTFGQGTKLEIK", "1.94e+06"),
]

Recorded kon of hu9F5VHv10/hu9F5VLv9_DIM11 (antibody, V domains shown, also called H10L9-DIM11; H10L9DIM11) VH: EVQLVQSGAEVKKPGATVKISCKASGFNIKDDYMNWVKQRPEKGLEWIGWIDPENGDTEYASKFQGRATMTADTSTNTAYMELSSLRSEDTAVYYCTTSNGWGQGTLVTVSS VL: DIQMTQSPFSLPVTPGESASISCRSSKSLGHSNGITYLYWYGQKPGQSPQLLIYQGSNRASGVPDRFSSSGSGTDFTLKISRVEAEDVGVYYCAQNIELPLTFGQGTKLEIK , please.
1.76e+06
